target: T1, cow serum albumin (cow, UniProt P02769 25-607); experiment: SPR (Biacore 8K), albumin immobilized on CM5 chip, 25 C, steady state
T1 construct: Bought protein, immobilized on a CM5 chip by amine coupling; also called Cow SA
Kindly supply the reported Kd values for the records listed here.
Respond numerically; units are nM and should not be typed.

Reported Kd of RLN Analog 9 (other, Single-chain fusion: RLN2 B chain (desB1) - L2 - RLN2 A chain - (G4Q)5 L1 - VHH (C-terminal)) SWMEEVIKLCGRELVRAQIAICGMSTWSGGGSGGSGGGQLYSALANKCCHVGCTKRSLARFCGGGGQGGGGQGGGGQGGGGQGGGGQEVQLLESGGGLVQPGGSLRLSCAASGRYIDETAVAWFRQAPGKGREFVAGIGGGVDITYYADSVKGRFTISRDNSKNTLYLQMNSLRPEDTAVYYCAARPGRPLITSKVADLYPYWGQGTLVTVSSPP : 84

Reported Kd of RLN Analog 4 (other, Single-chain fusion: VHH - (PGPQ)8 L1 - RLN2 B chain (desB1) - L2 - RLN2 A chain) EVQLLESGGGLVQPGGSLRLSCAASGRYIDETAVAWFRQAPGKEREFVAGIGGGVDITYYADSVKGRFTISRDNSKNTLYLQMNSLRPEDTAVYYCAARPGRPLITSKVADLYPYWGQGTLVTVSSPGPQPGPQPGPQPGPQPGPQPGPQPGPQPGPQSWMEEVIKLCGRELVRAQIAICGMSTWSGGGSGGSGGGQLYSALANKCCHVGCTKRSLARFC : 37

Reported Kd of RLN Analog 6 (other, Single-chain fusion: RLN2 B chain (desB1) - L2 - RLN2 A chain - PGPQ-repeat L1 - VHH (C-terminal)) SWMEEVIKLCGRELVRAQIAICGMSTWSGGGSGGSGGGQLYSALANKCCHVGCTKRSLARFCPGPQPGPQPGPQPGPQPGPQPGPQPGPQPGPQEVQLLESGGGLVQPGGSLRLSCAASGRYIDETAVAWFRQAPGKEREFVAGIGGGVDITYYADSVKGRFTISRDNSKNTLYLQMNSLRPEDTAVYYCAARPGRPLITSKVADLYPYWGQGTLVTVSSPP : 130

Reported Kd of RLN Analog 7 (other, Single-chain fusion: VHH - (G4Q)5 L1 - RLN2 B chain (desB1) - L2 - RLN2 A chain) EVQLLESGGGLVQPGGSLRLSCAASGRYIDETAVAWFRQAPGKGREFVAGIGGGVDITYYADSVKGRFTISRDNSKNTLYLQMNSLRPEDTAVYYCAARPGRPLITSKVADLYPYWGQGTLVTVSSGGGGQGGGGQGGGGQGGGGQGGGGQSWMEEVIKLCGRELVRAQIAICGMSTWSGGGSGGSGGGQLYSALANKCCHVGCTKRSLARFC : 25

Reported Kd of RLN Analog 3 (other, Single-chain fusion: VHH - (G4Q)5 L1 - RLN2 B chain (desB1) - L2 - RLN2 A chain) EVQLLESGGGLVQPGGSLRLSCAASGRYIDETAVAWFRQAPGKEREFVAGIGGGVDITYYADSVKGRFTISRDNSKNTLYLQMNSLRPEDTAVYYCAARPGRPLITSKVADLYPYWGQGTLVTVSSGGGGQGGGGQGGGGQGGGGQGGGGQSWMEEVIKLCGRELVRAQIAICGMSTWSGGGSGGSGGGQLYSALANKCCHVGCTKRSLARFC : 26
